Cited source: patent US20190241669A1

# target_under_test: T1, cynomolgus monkey BCMA (cynomolgus monkey, UniProt A0A2K5UD97 1-53)
# T1 construct: Soluble analyte in SPR; construct not described; also called cyBCMA; Cyno BCMA
# assay_notes: SPR, IgG on chip, cyBCMA analyte, 37C
result_type: koff

Worked set:
# binder, koff
rows = [
    ("L3.PY/L1.PH/H3.AQ (antibody, V domains shown, IgG) VH: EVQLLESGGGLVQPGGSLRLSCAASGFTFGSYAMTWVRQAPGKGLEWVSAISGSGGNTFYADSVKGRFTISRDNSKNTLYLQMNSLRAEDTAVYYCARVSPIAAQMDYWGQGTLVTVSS VL: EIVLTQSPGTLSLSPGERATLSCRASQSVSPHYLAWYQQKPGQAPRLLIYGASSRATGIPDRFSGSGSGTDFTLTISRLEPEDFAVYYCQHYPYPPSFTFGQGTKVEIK", "0.00341 s⁻¹"),
    ("L3.PY/L3.KY/H2.QR (antibody, V domains shown, IgG) VH: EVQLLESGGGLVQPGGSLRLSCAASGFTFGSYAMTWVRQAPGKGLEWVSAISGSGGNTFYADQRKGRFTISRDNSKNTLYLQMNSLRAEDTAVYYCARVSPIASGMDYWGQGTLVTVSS VL: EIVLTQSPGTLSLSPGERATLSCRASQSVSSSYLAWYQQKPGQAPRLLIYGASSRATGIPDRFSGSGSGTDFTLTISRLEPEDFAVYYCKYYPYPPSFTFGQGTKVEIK", "0.00774 s⁻¹"),
]

Reported koff for L3.PY/L1.FF/H2.HA (antibody, V domains shown, IgG) VH: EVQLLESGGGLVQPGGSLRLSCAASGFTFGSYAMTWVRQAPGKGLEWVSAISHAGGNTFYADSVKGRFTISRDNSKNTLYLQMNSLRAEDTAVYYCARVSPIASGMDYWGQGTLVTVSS VL: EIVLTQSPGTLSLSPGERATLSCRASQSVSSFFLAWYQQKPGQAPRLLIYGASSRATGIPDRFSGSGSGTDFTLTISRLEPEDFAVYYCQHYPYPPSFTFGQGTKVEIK : what is it?
0.00417 s⁻¹
